Values from ChEMBL document CHEMBL2440076

Reported growth at 0.005 µM is given for each of the following molecules.
System: KM12
run.description: Growth inhibition of human KM12 cells assessed as cell growth at 5X10'-9 M after 48 hrs by sulforhodamine B assay
Type: functional
experimental.setup: KM12, 48 h, read-out: Activity

Sample answers from the record:
{"smiles.str": "COc1cc(-c2nn(-c3cccc(NC(=O)Nc4ccc(Cl)c(Cl)c4)c3)cc2-c2ccncc2)ccc1Cl", "result": "103%"}
{"smiles.str": "COc1cc(-c2nn(-c3cccc(NC(=O)Nc4cccc(C(F)(F)F)c4)c3)cc2-c2ccncc2)ccc1Cl", "result": "104%"}
{"smiles.str": "COc1cc(-c2nn(-c3cccc(NC(=O)Nc4cc(C(F)(F)F)cc(C(F)(F)F)c4)c3)cc2-c2ccncc2)ccc1Cl", "result": "103%"}

The record that follows has no growth at 0.005 µM shown yet.
**Q:** Write down the reported growth at 0.005 µM (system: KM12) of `COc1cc(-c2nn(-c3cccc(NC(=O)c4cccc(C(F)(F)F)c4)c3)cc2-c2ccncc2)ccc1Cl`
**A:** 100%
